TARGET_UNDER_TEST: OnOr6/2 (Ostrinia nubilalis, UniProt D3J5H9)
Construct: gene OR6; full-length ORF (421-425 residues for the set) in pGEMHE; cRNA co-injected with OnOr2 in Xenopus oocytes; dimer with Or83b ortholog; with Odorant receptor coreceptor
Sequence (D3J5H9 1-421): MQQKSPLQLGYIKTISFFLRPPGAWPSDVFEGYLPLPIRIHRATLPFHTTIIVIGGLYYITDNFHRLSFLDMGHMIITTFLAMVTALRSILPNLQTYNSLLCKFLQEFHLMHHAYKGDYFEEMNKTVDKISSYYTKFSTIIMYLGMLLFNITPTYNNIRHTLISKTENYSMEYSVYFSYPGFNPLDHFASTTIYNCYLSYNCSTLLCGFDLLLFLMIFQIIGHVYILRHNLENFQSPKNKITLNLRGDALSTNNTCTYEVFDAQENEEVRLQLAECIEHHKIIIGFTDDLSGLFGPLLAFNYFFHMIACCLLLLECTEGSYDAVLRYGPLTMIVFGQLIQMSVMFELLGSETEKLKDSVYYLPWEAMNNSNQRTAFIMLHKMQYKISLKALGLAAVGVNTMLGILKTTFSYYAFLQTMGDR
Sequence (D3J5H5 1-473 partner): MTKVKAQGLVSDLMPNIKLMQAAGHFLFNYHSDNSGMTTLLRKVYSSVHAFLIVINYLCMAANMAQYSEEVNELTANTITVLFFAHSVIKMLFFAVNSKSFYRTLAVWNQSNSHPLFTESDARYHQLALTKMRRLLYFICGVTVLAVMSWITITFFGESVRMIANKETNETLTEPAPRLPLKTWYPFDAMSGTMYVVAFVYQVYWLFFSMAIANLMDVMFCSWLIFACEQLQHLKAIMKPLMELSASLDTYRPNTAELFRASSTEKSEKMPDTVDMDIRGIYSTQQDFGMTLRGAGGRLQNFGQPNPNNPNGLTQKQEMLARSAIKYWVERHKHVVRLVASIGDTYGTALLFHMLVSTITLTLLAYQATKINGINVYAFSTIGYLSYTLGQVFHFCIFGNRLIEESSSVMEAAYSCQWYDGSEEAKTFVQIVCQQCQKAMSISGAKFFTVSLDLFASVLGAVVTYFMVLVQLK
MEASUREMENT_PROTOCOL: two-electrode voltage clamp, Xenopus oocytes
Type: cell-based
CONDITIONS: read-out: EC50 (μM ± SEM)
ASSAY_METRIC: EC50 (µM)
Report only the number, with the unit µM understood.

What value of EC50 has been recorded for this entry: CC/C=C\CCCCCCCCCCOC(C)=O [Z11, Z11–14:OAc] 0.86
